Assign MIC to each entry below.
System: Staphylococcus aureus S13E
Assay: standard agar-dilution assay (MIC)
Assay type: cell-based
Settings: unit assumed
Experimental: The MIC's in Table II were determined by standard agar-dilution assays. The MIC's in Table III were obtained using a conventional broth-dilution microtiter test.
Answers are plain numbers, in µg/mL.

Some solved entries appear below for comparison.
Request: Any idea what MIC was measured for CCC1OC(=O)CC(O)C(C)C(OC2OC(C)C(OC3CC(C)(O)C(O)C(C)O3)C(N(C)C)C2OC(C)=O)C(CC=O)CC(C)C(=O)C=CC(C)=CC1COC(=O)CCCCc1ccccc1 (stereo not drawn) [Compound 18] ?
Result: 1

Request: Any idea what MIC was measured for CCC1OC(=O)CC(O)C(C)C(OC2OC(C)C(OC3CC(C)(O)C(O)C(C)O3)C(N(C)C)C2OC(C)=O)C(CC=O)CC(C)C(=O)C=CC(C)=CC1COC(=O)OC (stereo not drawn) [Compound 24] ?
Result: 0.5

Request: Any idea what MIC was measured for CCC1OC(=O)CC(O)C(C)C(OC2OC(C)C(OC3CC(C)(O)C(O)C(C)O3)C(N(C)C)C2OC(C)=O)C(CC=O)CC(C)C(=O)C=CC(C)=CC1COC(=O)Cc1cc(OC)ccc1OC (stereo not drawn) [Compound 20] ?
Result: 0.5

Request: Any idea what MIC was measured for CCC1OC(=O)CC(O)C(C)C(OC2OC(C)C(OC3CC(C)(O)C(O)C(C)O3)C(N(C)C)C2OC(C)=O)C(CC=O)CC(C)C(=O)C=CC(C)=CC1COC(=O)C(Cl)(Cl)Cl (stereo not drawn) [Compound 16] ?
Result: 1

# batch: return MIC for each of the 4 compounds below
1. CCC1OC(=O)CC(O)C(C)C(OC2OC(C)C(OC3CC(C)(O)C(O)C(C)O3)C(N(C)C)C2O)C(CC=O)CC(C)C(=O)C=CC(C)=CC1COC(=O)N1CCC(O)CC1 (stereo not drawn) [Compound 28]
2. CCC1OC(=O)CC(O)C(C)C(OC2OC(C)C(OC3CC(C)(O)C(O)C(C)O3)C(N(C)C)C2O)C(CC=O)CC(C)C(=O)C=CC(C)=CC1COC(=O)NCCCCCCCCN (stereo not drawn) [Compound 27]
3. CCC(=O)OCC1C=C(C)C=CC(=O)C(C)CC(CC=O)C(OC2OC(C)C(OC3CC(C)(O)C(O)C(C)O3)C(N(C)C)C2OC(C)=O)C(C)C(O)CC(=O)OC1CC (stereo not drawn) [Compound 5, 2'-O-Acetyl-23-O-propionyl DMT]
4. CCC1OC(=O)CC(O)C(C)C(OC2OC(C)C(OC3CC(C)(O)C(O)C(C)O3)C(N(C)C)C2OC(C)=O)C(CC=O)CC(C)C(=O)C=CC(C)=CC1COC(=O)COc1ccccc1 (stereo not drawn) [Compound 12, 2'-O-Acetyl-23-O-phenoxyacetyl-DMT]

Result:
2
4
1
0.5

# batch: return MIC for each of the 4 compounds below
1. CCC1OC(=O)CC(O)C(C)C(OC2OC(C)C(OC3CC(C)(O)C(O)C(C)O3)C(N(C)C)C2OC(C)=O)C(CC=O)CC(C)C(=O)C=CC(C)=CC1COC(=O)NCc1ccccc1 (stereo not drawn) [Compound 30]
2. CCC1OC(=O)CC(O)C(C)C(OC2OC(C)C(OC3CC(C)(O)C(O)C(C)O3)C(N(C)C)C2OC(C)=O)C(CC=O)CC(C)C(=O)C=CC(C)=CC1COC(=O)Cc1ccc(Cl)cc1 (stereo not drawn) [Compound 14]
3. CCC1OC(=O)CC(O)C(C)C(OC2OC(C)C(OC3CC(C)(O)C(O)C(C)O3)C(N(C)C)C2OC(C)=O)C(CC=O)CC(C)C(=O)C=CC(C)=CC1COC(C)=O (stereo not drawn) [Compound 1, 2',23-Di-O-Acetyl-DMT]
4. CCC1OC(=O)CC(O)C(C)C(OC2OC(C)C(OC3CC(C)(O)C(O)C(C)O3)C(N(C)C)C2O)C(CC=O)CC(C)C(=O)C=CC(C)=CC1COC(=O)n1ccnc1 (stereo not drawn) [Compound 22]

Result:
1: 0.5; 2: 1; 3: 2; 4: 0.5
